Assign GDF15 activity (EC50, pM) to each entry below.
# TESTED_SYSTEM: T1, human GFRAL (human, UniProt Q6UXV0 19-394)
# T1 sequence (looked up): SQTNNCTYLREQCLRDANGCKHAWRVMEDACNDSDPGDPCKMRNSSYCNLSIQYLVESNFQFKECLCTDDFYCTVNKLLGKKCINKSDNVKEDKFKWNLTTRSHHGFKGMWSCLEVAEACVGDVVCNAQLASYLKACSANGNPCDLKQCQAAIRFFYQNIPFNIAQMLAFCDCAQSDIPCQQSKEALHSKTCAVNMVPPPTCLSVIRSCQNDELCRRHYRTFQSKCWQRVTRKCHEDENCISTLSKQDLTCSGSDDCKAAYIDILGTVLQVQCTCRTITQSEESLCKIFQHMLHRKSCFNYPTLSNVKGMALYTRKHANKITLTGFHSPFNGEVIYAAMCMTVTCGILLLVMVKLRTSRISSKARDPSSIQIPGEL
# MEASUREMENT_DESCRIPTION: cell-based or functional assay
Answers are plain numbers, in pM.

MLC005 (ligand, Moiety A (HOOC-(CH2)16-CO-gGlu-2XADO) on 12K of Linker (43K of fusion polypeptide)) HGEGTFTSDVSSYLEEQAAREFIAWLVRGGGGQEPGQEPGQEKGQEPGQEPGQEPGQEPGQEPGAQPGAQPARQGDHCPLGPGRCCRLHTVRASLEDLGWADWVLSPREVQVTMCIGACPSQFRAANLHAQIKTSLHRLRPDTVPAPCCVPASYNPMVLIQRTDTGVSLQTYDDLLARDCHCI; 20.3

Moving on to the next binder.
Could you please provide reported GDF15 activity (EC50, pM) for MLC012 (ligand, Moiety A (HOOC-(CH2)16-CO-gGlu-2XADO) on 12K of Linker (43K of fusion polypeptide)) HGEGTFTSDVSSYLEEQAAREFIAWLVRGGGGQEPGQEPGQEKGQEPGQEPGQEPGQEPGQEPGQEPGQEPARQGDHCPLGPGRCCRLHTVRASLEDLGWADWVLSPREVQVTMCIGACPSQFRAANLHAQIKTSLHRLRPDTVPAPCCVPASYNPMVLIQRTDTGVSLQTYDDLLARDCHCI ? Thanks!
32.8
